Target: HA-GST-Rheb (GTP-γ-S loaded) activating mTORC1 (Homo sapiens (Human))
Test: Rheb-dependent in vitro kinase assay (Rheb-IVK; LanthaScreen or Western readout)
Type: biochemical
Details: Rheb-dependent in vitro kinase assay; read-out: IVK IC50
Recorded IC50 values for a group of compounds are listed next.

>>> result("CC(O)c1cc2c(Br)cc(Oc3ccccc3)cc2[nH]1 (centres unmarked) [I-218]")
"10 to 100 µM"
>>> result("OCc1cc2ccc(Oc3ccccc3)cc2[nH]1 [I-286, (6-Phenoxy-1H-indol-2-yl)methanol]")
"300 to 800 µM"

Query block: Please state recorded IC50 (tested on HA-GST-Rheb (GTP-γ-S loaded) activating mTORC1 (Homo sapiens (Human))) of Clc1ccc2[nH]c(-c3ncco3)nc2c1Oc1ccccc1 [I-427]
Result block: 100 to 300 µM

Query block: Please state recorded IC50 (tested on HA-GST-Rheb (GTP-γ-S loaded) activating mTORC1 (Homo sapiens (Human))) of OCc1cc2c(Sc3cccc(OC(F)(F)F)c3)cc(Cl)cc2[nH]1 [I-122]
Result block: < 10 µM

Query block: Please state recorded IC50 (tested on HA-GST-Rheb (GTP-γ-S loaded) activating mTORC1 (Homo sapiens (Human))) of OCc1nc2c(Br)cc(Oc3ccccc3)cc2[nH]1 [I-428]
Result block: > 100 µM

----------
Recorded pIC50 values for a group of compounds are listed next.
Biological target: HA-GST-Rheb (GTP-γ-S loaded) activating mTORC1 (Homo sapiens (Human), UniProt Q15382)
Sequence (Q15382 1-181): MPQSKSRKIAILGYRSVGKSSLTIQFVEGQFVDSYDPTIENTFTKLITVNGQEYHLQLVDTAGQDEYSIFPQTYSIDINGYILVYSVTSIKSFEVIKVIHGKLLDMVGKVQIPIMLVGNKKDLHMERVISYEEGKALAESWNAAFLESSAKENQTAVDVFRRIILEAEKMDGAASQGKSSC
Experiment: Rheb-dependent in vitro kinase assay (Rheb-IVK; LanthaScreen or Western readout)
Assay type: biochemical
Settings: Rheb-dependent in vitro kinase assay; read-out: IVK IC50
pIC50: −log10 of the molar value.

The examples below pair each entry with its known result.
>>> result("OCc1nc2cc(Sc3ccc(Cl)cc3Cl)c(Cl)c(Cl)c2[nH]1 [I-358]")
"4.00 to 5.00"
>>> result("O=C(O)c1ccc(Cn2c(C(=O)O)cc3c(Br)cc(Oc4ccccc4)cc32)cc1 [I-165]")
"4.00 to 5.00"
>>> result("Cn1ccc2c(NC3CCNCC3)cccc21 [I-297]")
"3.10 to 3.52"
>>> result("OCc1nc2c(OCC3CC=CC3)c(Cl)c(Cl)cc2[nH]1 [I-377]")
"< 4.00"
>>> result("OCc1cc2c(Sc3ccc(OC(F)(F)F)cc3)cc(Cl)cc2[nH]1 [I-123]")
"> 5.00"
>>> result("OCc1nc2c(OC[C@H]3CNCC[C@@H]3O)c(Cl)c(Cl)cc2[nH]1 (racemic) [I-385]")
"< 4.00"

Query block: Please state recorded pIC50 (tested on HA-GST-Rheb (GTP-γ-S loaded) activating mTORC1 (Homo sapiens (Human), UniProt Q15382)) of OCc1nc2c(OCC3CCCCC3O)cc(Cl)cc2[nH]1 (stereo not shown) [I-390]
Result block: 3.52 to 4.00

Query block: Please state recorded pIC50 (tested on HA-GST-Rheb (GTP-γ-S loaded) activating mTORC1 (Homo sapiens (Human), UniProt Q15382)) of OCc1cc2c(Oc3ccccc3Cl)cccc2[nH]1 [I-276]
Result block: 3.52 to 4.00

Query block: Please state recorded pIC50 (tested on HA-GST-Rheb (GTP-γ-S loaded) activating mTORC1 (Homo sapiens (Human), UniProt Q15382)) of CC(C)(C)OC(=O)N1CCN(C(=O)c2ccc(Cn3c(C(=O)O)cc4c(Br)cc(Sc5ccc(Cl)c(Cl)c5)cc43)cc2)CC1 [I-44]
Result block: < 4.00

Query block: Please state recorded pIC50 (tested on HA-GST-Rheb (GTP-γ-S loaded) activating mTORC1 (Homo sapiens (Human), UniProt Q15382)) of NC(=O)c1cc2c(Oc3ccccc3)cc(Cl)cc2[nH]1 [I-169]
Result block: 4.00 to 5.00

Query block: Please state recorded pIC50 (tested on HA-GST-Rheb (GTP-γ-S loaded) activating mTORC1 (Homo sapiens (Human), UniProt Q15382)) of OCc1cc2c(Sc3ccc4ccccc4c3)cc(Cl)cc2[nH]1 [I-134]
Result block: 4.00 to 5.00

----------
Target: HA-GST-Rheb (GTP-γ-S loaded) activating mTORC1 (Homo sapiens (Human), UniProt Q15382)
Experiment: Rheb-dependent in vitro kinase assay (Rheb-IVK; LanthaScreen or Western readout)
Format: biochemical
Settings: Rheb-dependent in vitro kinase assay; read-out: IVK IC50
pIC50: −log10 of the molar value.
endpoint.label: pIC50

>>> result("CN(C)CCNC(=O)c1cc2c(Sc3ccc(Cl)cc3Cl)cc(Cl)cc2[nH]1 [I-115]")
"4.00 to 5.00"
>>> result("OCc1nc2c(OCC3CCCC(O)C3)c(Cl)c(Cl)cc2[nH]1 (centres unmarked) [I-396]")
"4.00 to 5.00"

Query block: Please state recorded pIC50 (tested on HA-GST-Rheb (GTP-γ-S loaded) activating mTORC1 (Homo sapiens (Human), UniProt Q15382)) of c1cnc(Nc2cccc3[nH]ccc23)nc1 [I-189]
Result block: < 4.00

Query block: Please state recorded pIC50 (tested on HA-GST-Rheb (GTP-γ-S loaded) activating mTORC1 (Homo sapiens (Human), UniProt Q15382)) of O=C(NCCN1CCN(c2ccccc2)CC1)c1cc2c(Sc3ccc(Cl)cc3Cl)cc(Cl)cc2[nH]1 [I-119]
Result block: < 4.00

Query block: Please state recorded pIC50 (tested on HA-GST-Rheb (GTP-γ-S loaded) activating mTORC1 (Homo sapiens (Human), UniProt Q15382)) of NC(=O)C1CCCN(C(=O)c2cc3c(Sc4ccc(Cl)cc4)cc(Cl)cc3[nH]2)C1 (centres unmarked) [I-132]
Result block: < 4.00

----------
Biological target: HA-GST-Rheb (GTP-γ-S loaded) activating mTORC1 (Homo sapiens (Human))
Test: Rheb-dependent in vitro kinase assay (Rheb-IVK; LanthaScreen or Western readout)
Assay type: biochemical
Settings: Rheb-dependent in vitro kinase assay; read-out: IVK IC50
endpoint.label: IC50

>>> result("CS(=O)(=O)CCNC(=O)c1cc2c(Sc3ccc(Cl)cc3)cc(Cl)cc2[nH]1")
"> 100 µM"
>>> result("CC(C)(C)OC(=O)NCc1nc2cc(OCc3ccc(Cl)cc3)c(Cl)c(Cl)c2[nH]1")
"> 100 µM"
>>> result("CN1CCC[C@@H]1CNC(=O)c1cc2c(Br)cc(Sc3ccc(Cl)c(Cl)c3)cc2[nH]1")
"> 100 µM"

Pending compound:
Query block: Data request, read-out IC50, for CCn1c(CO)nc2cc(Cl)c(OCc3ccc(F)cc3)cc21
Result block: > 100 µM

----------
Target: UniProtKB Q15382
Experiment: Rheb-dependent in vitro kinase assay (Rheb-IVK; LanthaScreen or Western readout)
Format: biochemical
Details: Rheb-dependent in vitro kinase assay; read-out: IVK IC50
pIC50: −log10 of the molar value.
endpoint.label: pIC50

The examples below pair each entry with its known result.
>>> result("O=C(O)c1nc2c(OCc3ccc(Cl)cc3)c(Cl)c(Cl)cc2[nH]1")
"4.00 to 5.00"
>>> result("NC(=O)c1cccc(Cn2c(-c3ncco3)nc3cc(Cl)c(Cl)cc32)c1")
"< 4.00"
>>> result("Clc1cc2nc(-c3ncco3)n(Cc3cccc(-c4nn[nH]n4)c3)c2cc1Cl")
"< 4.00"

Query block: Please state recorded pIC50 (tested on UniProtKB Q15382) of CC(C)(C)OC(=O)c1ccc(Cn2c(C(=O)O)cc3c(Br)cc(Oc4ccccc4)cc32)cc1
Result block: > 5.00

Query block: Please state recorded pIC50 (tested on UniProtKB Q15382) of CN1CCN(C(=O)c2cc3nc(-c4ccnc5[nH]ccc45)[nH]c3c(Cl)c2Cl)CC1
Result block: < 4.00

Query block: Please state recorded pIC50 (tested on UniProtKB Q15382) of O=C(O)c1ccc(Cn2c(-c3ncco3)nc3cc(Cl)c(Cl)cc32)cc1
Result block: < 4.00

----------
Molecular target: HA-GST-Rheb (GTP-γ-S loaded) activating mTORC1 (Homo sapiens (Human), UniProt Q15382)
Test: Rheb-dependent in vitro kinase assay (Rheb-IVK; LanthaScreen or Western readout)
Type: biochemical
Settings: Rheb-dependent in vitro kinase assay; read-out: IVK IC50
pIC50: −log10 of the molar value.
Recorded pIC50 values for a group of compounds are listed next.

Query block: Data request, read-out pIC50, for Clc1cccc(Oc2cc(Cl)cc3[nH]ccc23)c1 [I-208, 6-chloro-4-(3-chlorophenoxy)-1H-indole]
Result block: 4.00 to 5.00

Query block: Data request, read-out pIC50, for NC(=O)c1ccc(Cn2c(-c3ncco3)nc3cc(Cl)c(Cl)cc32)cc1 [I-451]
Result block: < 4.00

Query block: Data request, read-out pIC50, for CCn1cnc2cc(Cl)c(OCc3ccccc3)cc21 [I-435]
Result block: < 4.00

Query block: Data request, read-out pIC50, for O=C(O)c1cc2c(Sc3ccc(Oc4ccccc4)cc3)cc(Cl)cc2[nH]1 [I-118]
Result block: > 5.00

Query block: Data request, read-out pIC50, for CN(C)C(=O)c1ccc(Cn2c(C(=O)O)cc3c(Br)cc(SCC4CCCCC4)cc32)cc1 [I-24]
Result block: > 5.00
